Readout Type: melting point (°C)
Provide only the numeric value, understood in °C.

Below: 5 compounds and their reported melting point.
| Compound | Display Unit | Endpoint Result |
| --- | --- | --- |
| O=C(Nc1ncc(C(F)(F)F)o1)C1c2cc(F)ccc2Oc2ccc(F)cc21 [Example 10] | °C | 232 |
| O=C(Nc1nc(C(F)(F)F)co1)C1c2cc(F)ccc2Oc2ccc(F)cc21 [Example 9] | °C | 259 |
| O=C(Nc1nc(C(F)(F)F)co1)C1c2ccccc2Oc2c(Cl)cccc21 (racemic) [Example 14] | °C | 212 |
| O=C(Nc1ncc(C(F)(F)F)o1)C1c2ccccc2Oc2ccccc21 [Example 2] | °C | 218 |
| O=C(Nc1nc(C(F)(F)F)co1)C1c2ccccc2Oc2ccc(Cl)cc21 (racemic) [Example 13] | °C | 235 |

Input: Quick one: melting point of O=C(Nc1nc(C(F)(F)F)co1)C1c2ccc(F)cc2Oc2cc(F)ccc21 [Example 11] ?
Output: 265

Input: Quick one: melting point of O=C(Nc1nc(C(F)(F)F)co1)C1c2ccccc2Oc2cc(F)ccc21 (racemic) [Example 5] ?
Output: 221

* * *

# Assay Info: Microsome incubation, rat liver microsomes (metabolic stability)
# Type: in vitro ADME
# Run Parameters: pH 7.4; rat liver microsomes 1.0 mg prot/mL, test compound 10 μM, 37° C., NADPH regenerating system; calculated from in vitro half-life; read-out: Intrinsic clearance (rat)
Readout Type: microsomal CLint at 10 μM (µL/min/mg)
Provide only the numeric value, understood in µL/min/mg.

| Compound | Readout Type | Endpoint Result |
| --- | --- | --- |
| O=C(Nc1ncc(C(F)(F)F)o1)C1c2cc(F)ccc2Oc2ccc(F)cc21 | microsomal CLint at 10 μM | 26.1 |

Input: Quick one: microsomal CLint at 10 μM of O=C(Nc1nc(C(F)(F)F)co1)C1c2ccccc2Oc2ccc(F)cc21 (racemic) ?
Output: 61.4

Input: Quick one: microsomal CLint at 10 μM of `O=C(Nc1ncc(C(F)(F)F)o1)C1c2ccc(F)cc2Oc2cc(F)ccc21` ?
Output: 11.6

Input: Quick one: microsomal CLint at 10 μM of O=C(Nc1ncc(C(F)(F)F)o1)C1c2ccccc2Oc2c(F)cccc21 (racemic) ?
Output: 31.8

* * *

# Assay Info: Microsome incubation, human liver microsomes (metabolic stability)
# Format: in vitro ADME
# Run Parameters: maximal achievable bioavailability = 1−E (hepatic extraction ratio), extrapolated from human microsomal clearance
Readout Type: MAB (human) (%)
Provide only the numeric value, understood in %.

| Compound | MAB (human), % |
| --- | --- |
| O=C(Nc1nc(C(F)(F)F)co1)C1c2cc(F)ccc2Oc2ccc(F)cc21 [Example 9] | 85 |
| O=C(Nc1ncc(C(F)(F)F)o1)C1c2ccccc2Oc2cc(F)ccc21 (racemic) [Example 6] | 63 |

# evaluate next
Input: Quick one: MAB (human) of O=C(Nc1nc(C(F)(F)F)co1)C1c2ccccc2Oc2ccc(F)cc21 (racemic) [Example 3] ?
Output: 61

* * *

Parameter MAB (human): see the listing below.
# Assay Info: Microsome incubation, human liver microsomes (metabolic stability)
# Format: in vitro ADME
# Run Parameters: maximal achievable bioavailability = 1−E (hepatic extraction ratio), extrapolated from human microsomal clearance
Provide only the numeric value, understood in %.

Below: 3 compounds and their reported MAB (human).
| Compound | MAB (human) / % |
| --- | --- |
| O=C(Nc1ncc(C(F)(F)F)o1)C1c2ccccc2Oc2ccc(F)cc21 (racemic) | 45 |
| O=C(Nc1ncc(C(F)(F)F)o1)C1c2ccccc2Oc2c(F)cccc21 (racemic) | 45 |
| O=C(Nc1nc(C(F)(F)F)co1)C1c2ccc(F)cc2Oc2cc(F)ccc21 | 59 |

# evaluate next
Input: Quick one: MAB (human) of `O=C(Nc1ncc(C(F)(F)F)o1)C1c2cc(F)ccc2Oc2ccc(F)cc21` ?
Output: 73

* * *

# Assay Info: Microsome incubation, rat liver microsomes (metabolic stability)
# Type: in vitro ADME
# Run Parameters: pH 7.4; rat liver microsomes 1.0 mg prot/mL, test compound 10 μM, 37° C., NADPH regenerating system; calculated from in vitro half-life; read-out: Intrinsic clearance (rat)
Parameter microsomal CLint at 10 μM: see the listing below.
Provide only the numeric value, understood in µL/min/mg.

Below: 5 molecules and their reported microsomal CLint at 10 μM.
| Molecule | Readout Type | Endpoint Result |
| --- | --- | --- |
| O=C(Nc1ncc(C(F)(F)F)o1)C1c2ccccc2Oc2ccccc21 | microsomal CLint at 10 μM | 50 |
| O=C(Nc1nc(C(F)(F)F)co1)C1c2cc(F)ccc2Oc2ccc(F)cc21 | microsomal CLint at 10 μM | 8.9 |
| O=C(Nc1nc(C(F)(F)F)co1)C1c2ccccc2Oc2c(F)cccc21 (racemic) | microsomal CLint at 10 μM | 32.8 |
| O=C(Nc1ncc(C(F)(F)F)o1)C1c2ccccc2Oc2ccc(F)cc21 (racemic) | microsomal CLint at 10 μM | 40.2 |
| O=C(Nc1ncc(C(F)(F)F)o1)C1c2ccccc2Oc2cc(F)ccc21 (racemic) | microsomal CLint at 10 μM | 27.8 |

Input: Quick one: microsomal CLint at 10 μM of O=C(Nc1nc(C(F)(F)F)co1)C1c2ccccc2Oc2cc(F)ccc21 (racemic) ?
Output: 34.3

Input: Quick one: microsomal CLint at 10 μM of `O=C(Nc1nc(C(F)(F)F)co1)C1c2ccccc2Oc2ccccc21` ?
Output: 108

Input: Quick one: microsomal CLint at 10 μM of `O=C(Nc1nc(C(F)(F)F)co1)C1c2ccc(F)cc2Oc2cc(F)ccc21` ?
Output: 17.6

* * *

# Target Or Test System: rat mGlu 1a receptor (Rattus norvegicus)
# Sequence (P23385 19-1199): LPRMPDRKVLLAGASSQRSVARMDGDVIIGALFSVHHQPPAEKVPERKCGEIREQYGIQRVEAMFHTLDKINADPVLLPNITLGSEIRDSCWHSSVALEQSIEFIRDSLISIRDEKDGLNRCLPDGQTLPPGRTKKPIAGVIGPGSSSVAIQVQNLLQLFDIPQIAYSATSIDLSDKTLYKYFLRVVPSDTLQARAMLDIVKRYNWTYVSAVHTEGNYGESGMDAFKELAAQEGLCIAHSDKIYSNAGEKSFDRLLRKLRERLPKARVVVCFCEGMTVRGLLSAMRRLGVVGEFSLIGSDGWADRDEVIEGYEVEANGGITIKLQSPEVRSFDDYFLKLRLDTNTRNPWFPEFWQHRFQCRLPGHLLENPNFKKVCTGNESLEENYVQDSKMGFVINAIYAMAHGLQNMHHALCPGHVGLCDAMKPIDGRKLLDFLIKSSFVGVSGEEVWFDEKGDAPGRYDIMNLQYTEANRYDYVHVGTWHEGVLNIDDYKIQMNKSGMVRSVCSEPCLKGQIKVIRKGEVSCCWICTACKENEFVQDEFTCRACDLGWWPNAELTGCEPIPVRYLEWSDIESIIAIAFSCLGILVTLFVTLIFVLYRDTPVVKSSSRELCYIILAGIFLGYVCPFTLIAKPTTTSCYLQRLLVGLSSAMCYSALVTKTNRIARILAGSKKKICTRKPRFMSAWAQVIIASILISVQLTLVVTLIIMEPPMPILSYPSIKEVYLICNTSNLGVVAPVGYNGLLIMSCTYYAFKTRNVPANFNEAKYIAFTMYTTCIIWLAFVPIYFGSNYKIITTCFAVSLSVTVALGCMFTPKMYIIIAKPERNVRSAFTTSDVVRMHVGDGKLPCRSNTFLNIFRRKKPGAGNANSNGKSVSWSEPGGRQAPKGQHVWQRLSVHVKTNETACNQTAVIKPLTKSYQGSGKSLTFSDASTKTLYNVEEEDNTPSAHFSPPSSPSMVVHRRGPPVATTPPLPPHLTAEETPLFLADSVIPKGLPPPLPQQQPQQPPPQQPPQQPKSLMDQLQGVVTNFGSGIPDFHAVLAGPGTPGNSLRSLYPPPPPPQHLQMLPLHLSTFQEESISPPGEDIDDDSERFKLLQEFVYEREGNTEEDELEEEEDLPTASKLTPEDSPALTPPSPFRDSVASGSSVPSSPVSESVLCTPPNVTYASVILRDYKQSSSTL
# Assay Info: [Ca2+]i measurement (FLIPR) on mGlu 1a transfected EBNA cells (headed "Binding Assay")
# Run Parameters: rat mGlu 1a transiently transfected EBNA cells, Fluo-3 AM, activation (agonist) curves
Readout Type: log10 of EC50 (log10 of the value in nM)
Field: value | Transform: log10 | Quantity: EC50 | Unit: nM

Below: 6 molecules and their reported log10 of EC50.
| Molecule | log10 of EC50 |
| --- | --- |
| O=C(Nc1nc(C(F)(F)F)co1)C1c2ccccc2Oc2cc(F)ccc21 (racemic) | 1.60 |
| O=C(Nc1ncc(C(F)(F)F)o1)C1c2ccccc2Oc2c(F)cccc21 (racemic) | 1.32 |
| O=C(Nc1nc(C(F)(F)F)co1)C1c2ccccc2Oc2ccccc21 | 1.75 |
| O=C(Nc1ncc(C(F)(F)F)o1)C1c2ccccc2Oc2ccc(F)cc21 (racemic) | 1.30 |
| O=C(Nc1nc(C(F)(F)F)co1)C1c2ccccc2Oc2c(F)cccc21 (racemic) | 1.20 |
| O=C(Nc1nc(C(F)(F)F)co1)C1c2ccc(F)cc2Oc2cc(F)ccc21 | 0.48 |

# evaluate next
Input: Quick one: log10 of EC50 of O=C(Nc1nc(C(F)(F)F)co1)C1c2ccccc2Oc2ccc(Cl)cc21 (racemic) ?
Output: 1.18

* * *

# Assay Info: Microsome incubation, human liver microsomes (metabolic stability)
# Format: in vitro ADME
# Run Parameters: pH 7.4; human liver microsomes 2.0 mg prot/mL, test compound 10 μM, 37° C., NADPH regenerating system; calculated from in vitro half-life; read-out: Intrinsic clearance (human)
Category | rule: reported microsomal CLint at 10 μM within range, see bucket 1 = under 8 µL/min/mg, bucket 2 = from 8 µL/min/mg up to 10 µL/min/mg, bucket 3 = 10 µL/min/mg and over

See these solved cases before continuing.
| Compound | Group Label |
| --- | --- |
| O=C(Nc1ncc(C(F)(F)F)o1)C1c2ccccc2Oc2cc(F)ccc21 (racemic) | bucket 2 |
| O=C(Nc1nc(C(F)(F)F)co1)C1c2ccc(F)cc2Oc2cc(F)ccc21 | bucket 3 |
| O=C(Nc1ncc(C(F)(F)F)o1)C1c2ccccc2Oc2ccccc21 | bucket 3 |
| O=C(Nc1nc(C(F)(F)F)co1)C1c2ccccc2Oc2cc(F)ccc21 (racemic) | bucket 1 |

Input: Categorize the following entry: O=C(Nc1ncc(C(F)(F)F)o1)C1c2ccccc2Oc2ccc(F)cc21 (racemic)
Output: bucket 3

Input: Categorize the following entry: `O=C(Nc1ncc(C(F)(F)F)o1)C1c2cc(F)ccc2Oc2ccc(F)cc21`
Output: bucket 1

* * *

# Assay Info: Microsome incubation, rat liver microsomes (metabolic stability)
# Assay type: in vitro ADME
# Run Parameters: maximal achievable bioavailability = 1−E (hepatic extraction ratio), extrapolated from rat microsomal clearance
Readout Type: MAB (rat) (%)
Provide only the numeric value, understood in %.

Below: 4 molecules and their reported MAB (rat).
| Molecule | MAB (rat) / % |
| --- | --- |
| O=C(Nc1nc(C(F)(F)F)co1)C1c2ccccc2Oc2ccc(F)cc21 (racemic) [Example 3] | 32 |
| O=C(Nc1ncc(C(F)(F)F)o1)C1c2ccccc2Oc2ccccc21 [Example 2] | 37 |
| O=C(Nc1nc(C(F)(F)F)co1)C1c2ccccc2Oc2cc(F)ccc21 (racemic) [Example 5] | 46 |
| O=C(Nc1ncc(C(F)(F)F)o1)C1c2ccc(F)cc2Oc2cc(F)ccc21 [Example 12] | 72 |

# evaluate next
Input: Quick one: MAB (rat) of O=C(Nc1ncc(C(F)(F)F)o1)C1c2ccccc2Oc2cc(F)ccc21 (racemic) [Example 6] ?
Output: 52
